Reported phosphorylation enrichment values for a set of sequences
system name: Hck (UniProt P08631)
Sequence (P08631 whole entry, looked up): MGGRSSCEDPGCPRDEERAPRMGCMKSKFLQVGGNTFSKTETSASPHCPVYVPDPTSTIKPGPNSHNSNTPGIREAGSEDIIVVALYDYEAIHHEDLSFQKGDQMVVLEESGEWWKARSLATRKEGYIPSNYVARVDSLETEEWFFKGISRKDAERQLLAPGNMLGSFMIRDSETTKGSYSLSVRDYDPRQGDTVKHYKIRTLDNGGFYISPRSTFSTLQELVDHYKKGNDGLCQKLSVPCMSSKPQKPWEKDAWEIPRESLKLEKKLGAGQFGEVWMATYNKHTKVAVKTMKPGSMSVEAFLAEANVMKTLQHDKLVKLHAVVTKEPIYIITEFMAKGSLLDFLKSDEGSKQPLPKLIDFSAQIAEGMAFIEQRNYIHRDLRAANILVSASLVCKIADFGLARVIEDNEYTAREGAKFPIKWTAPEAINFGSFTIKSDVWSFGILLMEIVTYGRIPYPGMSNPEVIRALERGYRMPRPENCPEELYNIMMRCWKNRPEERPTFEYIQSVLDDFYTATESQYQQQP
measurement notes: phosphorylation enrichment, bacterial display (enrichment ratio); higher = better substrate or ligand; peptides without Tyr show the background;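 note: 11-residue human phosphosite peptides and single-mutation variants displayed on the E. coli surface, counted by deep sequencing, each peptide's frequency after selection divided by its frequency in the unselected input library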;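 note: frequency after pTyr selection over input frequency; kinase dosed for 20-30% of maximal phosphorylation in three min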
Provide a numeric answer; units are not to be included.

{"polymer sequence": "GESKDYALHAG [SVIL_Y185_V189A]", "system name": "Hck (UniProt P08631)", "phosphorylation enrichment": 0.38}
{"polymer sequence": "KNNDGYIDFAE [MCFD2_Y135_YF]", "system name": "Hck (UniProt P08631)", "phosphorylation enrichment": 0.513}
{"polymer sequence": "KRYRIYHLATS [BRCA2_Y3009]", "system name": "Hck (UniProt P08631)", "phosphorylation enrichment": 0.432}

Field: next sequence
Q: Look at this sequence and give its reported phosphorylation enrichment. KELSNYKHLTL [SLIT2_Y776]
A: 0.384

----------
system name: Fes (UniProt P07332)
Sequence (P07332 whole entry, looked up): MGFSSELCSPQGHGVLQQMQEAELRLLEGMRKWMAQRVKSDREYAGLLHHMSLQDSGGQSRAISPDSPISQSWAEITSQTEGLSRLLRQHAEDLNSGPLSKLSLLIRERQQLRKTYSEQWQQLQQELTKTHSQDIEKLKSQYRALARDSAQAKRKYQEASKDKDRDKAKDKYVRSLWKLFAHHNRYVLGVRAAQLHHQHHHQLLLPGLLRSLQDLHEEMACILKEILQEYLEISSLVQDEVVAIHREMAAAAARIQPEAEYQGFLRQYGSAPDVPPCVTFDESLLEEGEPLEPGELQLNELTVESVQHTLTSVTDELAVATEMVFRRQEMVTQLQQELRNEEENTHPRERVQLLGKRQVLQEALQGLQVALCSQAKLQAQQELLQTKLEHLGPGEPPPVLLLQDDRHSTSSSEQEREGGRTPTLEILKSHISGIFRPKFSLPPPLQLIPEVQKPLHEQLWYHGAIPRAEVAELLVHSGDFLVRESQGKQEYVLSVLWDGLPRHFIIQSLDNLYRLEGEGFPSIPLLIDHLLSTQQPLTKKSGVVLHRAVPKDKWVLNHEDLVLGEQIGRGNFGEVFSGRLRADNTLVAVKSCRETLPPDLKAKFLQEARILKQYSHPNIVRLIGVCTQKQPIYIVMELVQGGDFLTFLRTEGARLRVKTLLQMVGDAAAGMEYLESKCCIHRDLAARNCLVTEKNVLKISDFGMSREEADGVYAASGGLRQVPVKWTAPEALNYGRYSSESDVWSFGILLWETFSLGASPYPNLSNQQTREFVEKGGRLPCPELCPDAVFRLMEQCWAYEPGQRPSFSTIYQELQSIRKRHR
measurement notes: phosphorylation enrichment, bacterial display (enrichment ratio); higher = better substrate or ligand; peptides without Tyr show the background
Reported phosphorylation enrichment values for a set of sequences
Provide a numeric answer; units are not to be included.

{"polymer sequence": "VPFAQYLAMNK [HARS1_Y138_R137Q]", "measurement": 0.639}

Q: Look at this sequence and give its reported phosphorylation enrichment. MKGDFYRFLAE [YWHAG_Y131_YF]
A: 0.798

Q: Look at this sequence and give its reported phosphorylation enrichment. VGSIEYLKREW [KCNMA1_Y885]
A: 0.967

Q: Look at this sequence and give its reported phosphorylation enrichment. FMFKVYSDPQP [FGFR1_Y280_C277Y_YF]
A: 1.68

Q: Look at this sequence and give its reported phosphorylation enrichment. GPIIRYDLGGA [CYP11B1_Y81_F79I]
A: 0.723

Q: Look at this sequence and give its reported phosphorylation enrichment. YYSSEYHYVGG [CTSC_Y345]
A: 0.945

Q: Look at this sequence and give its reported phosphorylation enrichment. GDFLSYREFHS [ERBIN_Y1107_YF]
A: 0.686
